Recorded values, source patent US11066396B2.

As an illustration, consider measured pIC50 for compounds on UniProt Q9BY41.
Sequence (Q9BY41 whole entry): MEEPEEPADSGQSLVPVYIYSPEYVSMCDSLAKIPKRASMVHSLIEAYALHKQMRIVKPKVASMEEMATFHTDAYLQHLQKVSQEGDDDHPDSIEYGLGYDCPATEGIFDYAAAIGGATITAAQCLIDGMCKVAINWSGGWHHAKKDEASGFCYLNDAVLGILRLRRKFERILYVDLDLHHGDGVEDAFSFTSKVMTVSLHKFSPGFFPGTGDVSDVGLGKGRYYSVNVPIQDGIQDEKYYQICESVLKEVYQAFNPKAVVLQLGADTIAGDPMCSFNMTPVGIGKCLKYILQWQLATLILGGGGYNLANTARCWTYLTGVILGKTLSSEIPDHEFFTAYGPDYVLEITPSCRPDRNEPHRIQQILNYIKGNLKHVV
Numbers only, as −log10 of the molar value.

{"columns": ["compound", "resultType", "reportedValue"],
 "data": [
  ["O=C(NC(Cc1ccc(-c2noc(C(F)(F)F)n2)cn1)c1cccc(C(F)(F)F)c1)C(F)(F)F (stereo not shown)", "pIC50", 4.35],
  ["CCc1nnc([C@@H]2CCC(=O)N2c2cc(F)c(-c3noc(C(F)(F)F)n3)cc2F)o1", "pIC50", 5.18],
  ["O=C1COC[C@@H](c2ccccc2)N1c1ccc(-c2noc(C(F)(F)F)n2)c(F)c1", "pIC50", 5.34],
  ["O=C1CCCC(c2ccccc2)N1c1ccc(-c2noc(C(F)(F)F)n2)cc1 (stereo not shown)", "pIC50", 6.10],
  ["Cc1noc(C2CCCC(=O)N2c2ccc(-c3noc(C(F)(F)F)n3)cc2)n1 (racemic)", "pIC50", 5.74]
]}

Provide each entry's pIC50 from the list below.
1. FC(F)(F)c1nc(-c2ccnc(OCc3nc4ccccc4[nH]3)c2)no1
2. O=C(Cn1ncccc1=O)N(Cc1ccc(-c2noc(C(F)(F)F)n2)cc1)c1cccc(C(F)(F)F)c1
3. O=C(NC(Cc1ccc(-c2noc(C(F)(F)F)n2)cn1)c1cccc(C(F)(F)F)c1)C1CCOCC1 (racemic)
4. O=C1COC[C@@H](c2ccccc2)N1c1cc(F)c(-c2noc(C(F)(F)F)n2)cc1F

6.01
5.66
5.21
4.92

GET /values?readout=pIC50&item= CC1(Cc2ccc(-c3noc(C(F)(F)F)n3)cc2)C(=O)Nc2ccc(F)cc21 (racemic) 4.82
